- Assay Remarks: Microsomal stability assay, human liver microsomes
- Assay type: in vitro ADME
- Protocol Conditions: pooled liver microsomes, pH 7.4, read-out: Mics (hu) CLint
Measured Property: microsomal CLint at 10 µM (µL/min/mg)

> print(dat)
                            molecule.smiles          u  experimental.value
1  O=P(O)(O)CP(=O)(O)OC[C@H]1O[C@@H](n2ccc3c(-c4ccc(F)c5ccccc45)nc(Cl)nc32)[C@H](O)[C@@H]1O  µL/min/mg                   2

[A] O=P(O)(O)CP(=O)(O)OC[C@H]1O[C@@H](n2ccc3c(-c4cccc5ccccc45)nc(Cl)nc32)[C@H](O)[C@@H]1O
[B] O=P(O)(O)CP(=O)(O)OC[C@H]1O[C@@H](n2ccc3c(-c4cnc5ccccc5c4)ncnc32)[C@H](O)[C@@H]1O
Challenge: Field: lower microsomal CLint at 10 µM | Options: A / B # answer = label of selected item
Response given: A
(A: 1 µL/min/mg, B: 2 µL/min/mg)

====

- Assay Remarks: In vivo pharmacokinetic study, intravenous
- Design: species or system male CD-1 mice
- Protocol Conditions: in vivo PK in mice, unit not given
Measured Property: clearance

> print(dat)
                                   molecule  measured.property  experimental.value
1  O=P(O)(O)CP(=O)(O)OC[C@H]1O[C@@H](n2ccc3c(-c4cc5ccccc5c5ccccc45)ncnc32)[C@H](O)[C@@H]1O [4A.11]          clearance  moderate clearance
2  O=P(O)(O)CP(=O)(O)OC[C@H]1O[C@@H](n2ccc3c(-c4cc5ccccc5o4)ncnc32)[C@H](O)[C@@H]1O [4A.8]          clearance      high clearance
3  O=P(O)(O)CP(=O)(O)OC[C@H]1O[C@@H](n2ccc3c(-c4cccc5c4oc4ccccc45)ncnc32)[C@H](O)[C@@H]1O [4A.10]          clearance  moderate clearance
4  O=P(O)(O)CP(=O)(O)OC[C@H]1O[C@@H](n2ccc3c(-c4ccsc4)ncnc32)[C@H](O)[C@@H]1O [4A.4]          clearance      high clearance

====

- System: HeLa S3
- Assay Remarks: In vitro cytotoxic activity
- Assay type: cell-based
- Protocol Conditions: Homo sapiens
pIC50: −log10 of the molar value.
Reported pIC50 values are given for each entry in this list.

Examples from the recorded data:
> print(dat)
                                   compound  measured.property  experimental.value
1  O=P(O)(O)CP(=O)(O)OC[C@H]1O[C@@H](n2ccc3c(-c4cccc5c4oc4ccccc45)ncnc32)[C@H](O)[C@@H]1O              pIC50              < 5.00
2  O=P(O)(O)CP(=O)(O)OC[C@H]1O[C@@H](n2ccc3c(-c4ccc5c(c4)CCCC5)nc(I)nc32)[C@H](O)[C@@H]1O [27H.23]              pIC50              < 5.00

We next turn to a different compound, shown below.
Challenge: Provide measured pIC50 value, entry: O=P(O)(O)CP(=O)(O)OC[C@H]1O[C@@H](n2ccc3c(-c4cccc5ccccc45)ncnc32)[C@H](O)[C@@H]1O
Response given: < 5.00

====

- Assay Remarks: in vitro
- Protocol Conditions: mouse, plasma
Measured Property: half-life at 10 µM

# count of solved cases: 2
> print(dat)
                                   compound  experimental.value
1  O=P(O)(O)CP(=O)(O)OC[C@H]1O[C@@H](n2ccc3c(-c4ccc5ccccc5c4)nc(Cl)nc32)[C@H](O)[C@@H]1O [7B.7]               > 2 h
2  O=P(O)(O)CP(=O)(O)OC[C@H]1O[C@@H](n2ccc3c(-c4cnc5ccccc5c4)ncnc32)[C@H](O)[C@@H]1O [4A.20]               > 2 h

Challenge: Answer with reported half-life at 10 µM of O=P(O)(O)CP(=O)(O)OC[C@H]1O[C@@H](n2ccc3c(-c4ccc5c(c4)CCCC5)nc(I)nc32)[C@H](O)[C@@H]1O [27H.23]
Response given: > 2 h

Challenge: Indicate its recorded half-life at 10 µM; the compound in question is O=P(O)(O)CP(=O)(O)OC[C@H]1O[C@@H](n2ccc3c(-c4ccsc4)ncnc32)[C@H](O)[C@@H]1O [4A.4]
Response given: > 2 h

Challenge: // fetch half-life at 10 µM given entry O=P(O)(O)CP(=O)(O)OC[C@H]1O[C@@H](n2ccc3c(-c4cccc5ccccc45)nc(Cl)nc32)[C@H](O)[C@@H]1O [7B.6]
Response given: > 2 h

Challenge: Consider the compound O=P(O)(O)CP(=O)(O)OC[C@H]1O[C@@H](n2ccc3c(-c4ccc5c(c4)CCCC5)nc(Cl)nc32)[C@H](O)[C@@H]1O [7B.23] . State its measured half-life at 10 µM.
Response given: > 2 h

Challenge: State its half-life at 10 µM: O=P(O)(O)CP(=O)(O)OC[C@H]1O[C@@H](n2ccc3c(-c4ccc5cc(O)ccc5c4)nc(Cl)nc32)[C@H](O)[C@@H]1O [7B.32]
Response given: > 2 h
